Assay: Cytotoxicity, XTT assay
Type: cell-based
Details: human, MT-2 cells, 4 days at 37°C, triplicate, mean ± SD
Positions of bridges follow the written chain, without caps; N, C: chain ends. Chains are numbered I, II in the order given.
Parameter: CC50 at 96 h. Scope: all listed entries.
Reported Property: CC50 at 96 h (µM)

Substance	Unit Of Measure	Bound Type	Readout Value
I: Ac-SEIVKKINNIERAIEAQQKLLQLTVWGIKQLQARIL-NH2 / II: Ac-SEIVKKINNIERAIEAQQKLLQLTVWGIKQLQARIL-NH2 / III: Ac-SEIVKKINNIERAIEAQQKLLQLTVWGIKQLQARIL-NH2 (amide I:6-III:11, I:11-II:6, II:11-III:6) [(N36MEK2)3]	µM	=	18.9
I: Ac-SGIVQKINNIERAIEAQQHLLQLTVWGIKQLQARIL-NH2 / II: Ac-SGIVQKINNIERAIEAQQHLLQLTVWGIKQLQARIL-NH2 / III: Ac-SGIVQKINNIERAIEAQQHLLQLTVWGIKQLQARIL-NH2 (amide I:6-III:11, I:11-II:6, II:11-III:6) [(N36M)3]	µM	>	50
I: Ac-SEIVKKINNIERAIEAQQHLLQLTVWGIKQLQARIL-NH2 / II: Ac-SEIVKKINNIERAIEAQQHLLQLTVWGIKQLQARIL-NH2 / III: Ac-SEIVKKINNIERAIEAQQHLLQLTVWGIKQLQARIL-NH2 (amide I:6-III:11, I:11-II:6, II:11-III:6) [(N36MEK1)3]	µM	=	17.3
